B1: Retinoic acid receptor RXR-alpha, residues 132 to 208; numbered along this chain, P19793 (parent)
chain: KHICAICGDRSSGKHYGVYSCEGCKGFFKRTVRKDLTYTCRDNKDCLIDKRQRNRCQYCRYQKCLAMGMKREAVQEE

Variants of: B1
Test: abundance fitness (aPCA) (normalised: wild type 0, dead -1); higher = more abundant; growth selection in yeast, the domain comes from the species named
Settings: Homo sapiens
What abundance fitness was measured for each of the following?
Quick one: just the number, no unit, thanks!

Query string: // abundance fitness lookup, key: KHICAICGDRSSGKHYGVYSCEGCKGFFKRTRRKDLTYTCRDNKDCLIDKRQRNRCQYCRYQKCLAMGMKREAVQEE [V32R]
Result string: -0.171

Query string: Request: KHICAKCGDRSSGKHYGVYSCEGCKGFFKRTVRKDLTYTCRDNKDCLIDKRQRNRCQYCRYQKCLAMGMKREAVQEE [I6K]
Result string: -0.881

Query string: Request: KHICAICGDRSSGKHYGVYSCEGCKGFFKRTVRKDLTITCRDNKDCLIDKRQRNRCQYCRYQKCLAMGMKREAVQEE [Y38I]
Result string: -0.041

Query string: Request: KHICAICGDRSSGKHYGVYSCEGYKGFFKRTVRKDLTYTCRDNKDCLIDKRQRNRCQYCRYQKCLAMGMKREAVQEE [C24Y]
Result string: -1.09

Data credit: the Human Domainome abundance scans (Beltran et al. 2025)
